- Experiment: Octanol-water partition coefficient, logP of the compound
- Assay type: physicochemical
- Study Conditions: read-out: logP
# Lookup of reported logP keyed by entry
Lab note: record the figure alone, no unit after it.

In [3]: df
Out[3]:
                                        smi  readout  quantitative_result
0  CC(=O)N[C@H](C(=O)N1C[C@H](O)C[C@H]1C(=O)N[C@@H](c1ccccc1)c1ccc(-c2scnc2C)cc1)C(C)(C)C     logP                 2.55
1  CCCC[C@H](NC(=O)[C@@H]1C[C@@H](O)CN1C(=O)[C@@H](NC(C)=O)C(C)(C)C)c1ccc(-c2scnc2C)cc1     logP                 2.75
2  CC(=O)N[C@H](C(=O)N1C[C@H](O)C[C@H]1C(=O)NCc1ccc(-c2scnc2C)cc1)C(C)(C)C     logP                 0.94

Would you kindly look at the next entry?
Q: Tell us which logP value is on record for CC(=O)N[C@H](C(=O)N1C[C@H](O)C[C@H]1C(=O)N[C@@H](CCc1ccc(O)cc1)c1ccc(-c2scnc2C)cc1)C(C)(C)C
Result: 3.08
